- Tested on: 598228-144-R-J1-PDC complex spheroids, viability
- ASSAY_SUMMARY: Anticancer human tumor 598228-144-R-J1-PDC patient-derived serous endometrial adenocarcinoma cell line growth inhibition [CLK]; active means viability on the fitted dose curve at most 10% of control; inactive means the rest
- CONDITION_NOTES: second compound 1 µM; first compound 0.0949 µM
Valid outcomes are listed here; reply with one: YES (active), NO (inactive)

[
  {
    "COMPOUND": "NC(=O)C(=Cn1cnc(-c2cc(C(F)(F)F)cc(C(F)(F)F)c2)n1)c1cncnc1 + CN1CCN(c2cc(C(=O)Nc3cc4cc(-c5cnn(C)c5)ccc4cn3)ccn2)CC1",
    "ASSIGNED_LABEL": "YES"
  },
  {
    "COMPOUND": "CC(C)CC(NC(=O)C(Cc1ccccc1)NC(=O)c1cnccn1)B(O)O (stereo not drawn) + CNC(=O)c1ccc(Nc2nc(OC3CCCC3)c3c(-c4ccc5nc(C)oc5c4)c[nH]c3n2)c(OC)c1",
    "ASSIGNED_LABEL": "YES"
  }
]

Here's the next entry for you.
I'd appreciate the recorded outcome for NC(=O)C(=Cn1cnc(-c2cc(C(F)(F)F)cc(C(F)(F)F)c2)n1)c1cncnc1 + CNC(=O)c1ccc(Nc2nc(OC3CCCC3)c3c(-c4ccc5nc(C)oc5c4)c[nH]c3n2)c(OC)c1 from this test.
NO

* * *

What viability, T/C was measured for each of the following?
- Tested on: 598228-144-R-J1-PDC complex spheroids, viability
- ASSAY_SUMMARY: Anticancer human tumor 598228-144-R-J1-PDC cell line growth inhibition [CLK];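 further: spheroids exposed to compounds for seven days before readout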;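 on viability, T/C: 100% = DMSO vehicle control wells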
- CONDITION_NOTES: second compound 0.0316 µM; first compound 1 µM; stronger effect = lower value
- Excerpt: A high-throughput screen of multi-cell type tumor spheroids was designed to identify active combinations of […] and targeted small molecules. Complex spheroids include a stromal component modeled by human endothelial cells (HUVEC) and fibroblasts modeled by human mesenchymal stem cells (MSCs). […] Compounds. […] If the clinical Cmax for an agent had not been determined, the highest concentration tested was 10 microM. […]
Give bare numbers, in %.

Example entries and their recorded answers appear below.
[
  {
    "COMPOUND": "CC(=O)O[C@H]1C(=O)[C@@]2(C)[C@H]([C@H](OC(=O)c3ccccc3)[C@]3(O)C[C@H](OC(=O)[C@H](O)[C@@H](NC(=O)c4ccccc4)c4ccccc4)C(C)=C1C3(C)C)[C@]1(OC(C)=O)CO[C@@H]1C[C@@H]2O + CN1CCN(c2cc(C(=O)Nc3cc4cc(-c5cnn(C)c5)ccc4cn3)ccn2)CC1",
    "EXPERIMENTAL_TARGET": "598228-144-R-J1-PDC complex spheroids, viability",
    "viability, T/C (%)": 34.3
  },
  {
    "COMPOUND": "CCN1CCN(Cc2ccc(Nc3ncc(F)c(-c4cc(F)c5nc(C)n(C(C)C)c5c4)n3)nc2)CC1 + CNC(=O)c1ccc(Nc2nc(OC3CCCC3)c3c(-c4ccc5nc(C)oc5c4)c[nH]c3n2)c(OC)c1",
    "EXPERIMENTAL_TARGET": "598228-144-R-J1-PDC complex spheroids, viability",
    "viability, T/C (%)": 88.8
  },
  {
    "COMPOUND": "CC(=O)O[C@H]1C(=O)[C@@]2(C)[C@H]([C@H](OC(=O)c3ccccc3)[C@]3(O)C[C@H](OC(=O)[C@H](O)[C@@H](NC(=O)c4ccccc4)c4ccccc4)C(C)=C1C3(C)C)[C@]1(OC(C)=O)CO[C@@H]1C[C@@H]2O + CNC(=O)c1ccc(Nc2nc(OC3CCCC3)c3c(-c4ccc5nc(C)oc5c4)c[nH]c3n2)c(OC)c1",
    "EXPERIMENTAL_TARGET": "598228-144-R-J1-PDC complex spheroids, viability",
    "viability, T/C (%)": 40.9
  }
]

Next up:
Recorded viability, T/C for O=c1[nH]cc(F)c(=O)[nH]1 + CNC(=O)c1ccc(Nc2nc(OC3CCCC3)c3c(-c4ccc5nc(C)oc5c4)c[nH]c3n2)c(OC)c1 , please?
103

* * *

- Test system: 598228-144-R-J1-PDC complex spheroids, viability
- ASSAY_SUMMARY: Anticancer human tumor 598228-144-R-J1-PDC cell line growth inhibition [CLK]; active = viability on the fitted dose curve at most 10% of control; inactive = the rest;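 further: spheroids exposed to compounds for seven days before readout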
- CONDITION_NOTES: second compound 3.16 µM; first compound 3.16 µM
Valid outcomes are listed here; reply with one: YES = active, NO = inactive

As a guide, the following entries are already answered.
[
  {
    "MOLECULE": "C#Cc1c(F)ccc2cc(O)cc(-c3ncc4c(N5CC6CCC(C5)N6)nc(OCC56CCCN5CC(F)C6)nc4c3F)c12 (stereo not drawn) + CN1CCN(c2cc(C(=O)Nc3cc4cc(-c5cnn(C)c5)ccc4cn3)ccn2)CC1",
    "ASSIGNED_LABEL": "YES"
  },
  {
    "MOLECULE": "O=C(c1cc(Cc2n[nH]c(=O)c3ccccc23)ccc1F)N1CCN(C(=O)C2CC2)CC1 + CN1CCN(c2cc(C(=O)Nc3cc4cc(-c5cnn(C)c5)ccc4cn3)ccn2)CC1",
    "ASSIGNED_LABEL": "YES"
  }
]

Here's the next entry for you.
I'd appreciate the recorded outcome for CC(Nc1ccc2c(c1)OCCn1cc(N3C(=O)OCC3C(F)F)nc1-2)C(N)=O (stereo not drawn) + CNC(=O)c1ccc(Nc2nc(OC3CCCC3)c3c(-c4ccc5nc(C)oc5c4)c[nH]c3n2)c(OC)c1 from this test.
NO

* * *

- Test system: 598228-144-R-J1-PDC complex spheroids, viability
- ASSAY_SUMMARY: Anticancer human tumor 598228-144-R-J1-PDC cell line growth inhibition [CLK]; active = viability on the fitted dose curve at most 10% of control; inactive = the rest;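 further: spheroids exposed to compounds for seven days before readout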
- CONDITION_NOTES: second compound 1 µM; first compound 0.3 µM
Valid outcomes are listed here; reply with one: active, inactive

As a guide, the following entries are already answered.
[
  {
    "COMPOUND": "C=CC(=O)Nc1cc(Nc2nccc(-c3cn(C)c4ccccc34)n2)c(OC)cc1N(C)CCN(C)C + CNC(=O)c1ccc(Nc2nc(OC3CCCC3)c3c(-c4ccc5nc(C)oc5c4)c[nH]c3n2)c(OC)c1",
    "EXPERIMENTAL_TARGET": "598228-144-R-J1-PDC complex spheroids, viability",
    "ASSIGNED_LABEL": "inactive"
  },
  {
    "COMPOUND": "C=CC(=O)Nc1cc(Nc2nccc(-c3cn(C)c4ccccc34)n2)c(OC)cc1N(C)CCN(C)C + CN1CCN(c2cc(C(=O)Nc3cc4cc(-c5cnn(C)c5)ccc4cn3)ccn2)CC1",
    "EXPERIMENTAL_TARGET": "598228-144-R-J1-PDC complex spheroids, viability",
    "ASSIGNED_LABEL": "active"
  }
]

Here's the next entry for you.
I'd appreciate the recorded outcome for NC(=O)C(=Cn1cnc(-c2cc(C(F)(F)F)cc(C(F)(F)F)c2)n1)c1cncnc1 + CN1CCN(c2cc(C(=O)Nc3cc4cc(-c5cnn(C)c5)ccc4cn3)ccn2)CC1 from this test.
active

* * *

- Test system: 598228-144-R-J1-PDC complex spheroids, viability
- ASSAY_SUMMARY: Anticancer human tumor 598228-144-R-J1-PDC cell line growth inhibition [CLK];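 further: spheroids exposed to compounds for seven days before readout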
- CONDITION_NOTES: curve of first compound; second compound 0.316 µM
pIC50: −log10 of the molar value.
What pIC50 was measured for each of the following?

Consider the following items and state reported pIC50 for each.
1. NC(=O)C(=Cn1cnc(-c2cc(C(F)(F)F)cc(C(F)(F)F)c2)n1)c1cncnc1 + CN1CCN(c2cc(C(=O)Nc3cc4cc(-c5cnn(C)c5)ccc4cn3)ccn2)CC1
2. C=CC(=O)N1CCN(c2nc(=O)n(-c3c(C)ccnc3C(C)C)c3nc(-c4c(O)cccc4F)c(F)cc23)C(C)C1 (stereo unspecified) + CN1CCN(c2cc(C(=O)Nc3cc4cc(-c5cnn(C)c5)ccc4cn3)ccn2)CC1
3. COC1C=CCC(C)C(C)S(=O)(=O)NC(=O)c2ccc3c(c2)N(CC2CCC21)CC1(CCCc2cc(Cl)ccc21)CO3 (stereo unspecified) + CN1CCN(c2cc(C(=O)Nc3cc4cc(-c5cnn(C)c5)ccc4cn3)ccn2)CC1
4. C=CC(=O)Nc1cc(Nc2nccc(-c3cn(C)c4ccccc34)n2)c(OC)cc1N(C)CCN(C)C + CN1CCN(c2cc(C(=O)Nc3cc4cc(-c5cnn(C)c5)ccc4cn3)ccn2)CC1
5. Nc1ccn(C2OC(CO)C(O)C2(F)F)c(=O)n1 (stereo unspecified) + CNC(=O)c1ccc(Nc2nc(OC3CCCC3)c3c(-c4ccc5nc(C)oc5c4)c[nH]c3n2)c(OC)c1
6. COc1c(OCCCN2CCOCC2)ccc2c3n(c(=NC(=O)c4cnc(N)nc4)nc12)CCN3 + CN1CCN(c2cc(C(=O)Nc3cc4cc(-c5cnn(C)c5)ccc4cn3)ccn2)CC1

> 8.02
> 7.50
> 7.50
> 9.02
7.27
> 8.50

Consider the following items and state reported pIC50 for each.
1. COc1cccc2c1C(=O)c1c(O)c3c(c(O)c1C2=O)CC(O)(C(=O)CO)CC3OC1CC(N)C(O)C(C)O1 (stereo unspecified) + CN1CCN(c2cc(C(=O)Nc3cc4cc(-c5cnn(C)c5)ccc4cn3)ccn2)CC1
2. C#Cc1c(F)ccc2cc(O)cc(-c3ncc4c(N5CC6CCC(C5)N6)nc(OCC56CCCN5CC(F)C6)nc4c3F)c12 (stereo unspecified) + CN1CCN(c2cc(C(=O)Nc3cc4cc(-c5cnn(C)c5)ccc4cn3)ccn2)CC1
3. Nc1ccccc1NC(=O)c1ccc(CNC(=O)OCc2cccnc2)cc1 + CN1CCN(c2cc(C(=O)Nc3cc4cc(-c5cnn(C)c5)ccc4cn3)ccn2)CC1
4. C=C(F)C(=O)N1CCN(c2nc(OCC3CCCN3C)nc3c2CCN(c2cccc4cccc(Cl)c24)C3)CC1CC#N (stereo unspecified) + CNC(=O)c1ccc(Nc2nc(OC3CCCC3)c3c(-c4ccc5nc(C)oc5c4)c[nH]c3n2)c(OC)c1
5. CCN1CCN(Cc2ccc(Nc3ncc(F)c(-c4cc(F)c5nc(C)n(C(C)C)c5c4)n3)nc2)CC1 + CNC(=O)c1ccc(Nc2nc(OC3CCCC3)c3c(-c4ccc5nc(C)oc5c4)c[nH]c3n2)c(OC)c1
6. CC1(C)CCC(CN2CCN(c3ccc(C(=O)NS(=O)(=O)c4ccc(NCC5CCOCC5)c([N+](=O)[O-])c4)c(Oc4cnc5[nH]ccc5c4)c3)CC2)=C(c2ccc(Cl)cc2)C1 + CN1CCN(c2cc(C(=O)Nc3cc4cc(-c5cnn(C)c5)ccc4cn3)ccn2)CC1
7. CCc1c2c(nc3ccc(O)cc13)-c1cc3c(c(=O)n1C2)COC(=O)[C@]3(O)CC + CN1CCN(c2cc(C(=O)Nc3cc4cc(-c5cnn(C)c5)ccc4cn3)ccn2)CC1
8. CC(CO)NC(=O)c1cc(-c2ccc(Cl)cc2)nn(-c2cnn(C)c2)c1=O (stereo unspecified) + CNC(=O)c1ccc(Nc2nc(OC3CCCC3)c3c(-c4ccc5nc(C)oc5c4)c[nH]c3n2)c(OC)c1

1: > 7.50; 2: > 7.50; 3: > 7.50; 4: 5.29; 5: < 6.00; 6: > 7.50; 7: > 8.50; 8: < 5.00

Consider the following items and state reported pIC50 for each.
1. COc1ccc([C@@H](O)c2cc(-c3ncnc4cc(N5CCOCC5)ccc34)c(F)cc2Cl)nn1 + CN1CCN(c2cc(C(=O)Nc3cc4cc(-c5cnn(C)c5)ccc4cn3)ccn2)CC1
2. COc1ccc([C@@H](O)c2cc(-c3ncnc4cc(N5CCOCC5)ccc34)c(F)cc2Cl)nn1 + CNC(=O)c1ccc(Nc2nc(OC3CCCC3)c3c(-c4ccc5nc(C)oc5c4)c[nH]c3n2)c(OC)c1
3. CC(=O)O[C@H]1C(=O)[C@@]2(C)[C@H]([C@H](OC(=O)c3ccccc3)[C@]3(O)C[C@H](OC(=O)[C@H](O)[C@@H](NC(=O)c4ccccc4)c4ccccc4)C(C)=C1C3(C)C)[C@]1(OC(C)=O)CO[C@@H]1C[C@@H]2O + CN1CCN(c2cc(C(=O)Nc3cc4cc(-c5cnn(C)c5)ccc4cn3)ccn2)CC1
4. CC(C)CC(NC(=O)C(Cc1ccccc1)NC(=O)c1cnccn1)B(O)O (stereo unspecified) + CNC(=O)c1ccc(Nc2nc(OC3CCCC3)c3c(-c4ccc5nc(C)oc5c4)c[nH]c3n2)c(OC)c1
5. C=CC(=O)N1CCN(c2nc(=O)n(-c3c(C)ccnc3C(C)C)c3nc(-c4c(O)cccc4F)c(F)cc23)C(C)C1 (stereo unspecified) + CNC(=O)c1ccc(Nc2nc(OC3CCCC3)c3c(-c4ccc5nc(C)oc5c4)c[nH]c3n2)c(OC)c1
6. O=c1[nH]cc(F)c(=O)[nH]1 + CNC(=O)c1ccc(Nc2nc(OC3CCCC3)c3c(-c4ccc5nc(C)oc5c4)c[nH]c3n2)c(OC)c1
7. O=C(c1cc(Cc2n[nH]c(=O)c3ccccc23)ccc1F)N1CCN(C(=O)C2CC2)CC1 + CNC(=O)c1ccc(Nc2nc(OC3CCCC3)c3c(-c4ccc5nc(C)oc5c4)c[nH]c3n2)c(OC)c1

["> 7.50", 5.39, "> 7.50", 8.46, "< 5.00", "< 5.00", "< 5.00"]
